Sourced from ChEMBL document CHEMBL1154888

pIC50 reference
# Test system: K562
# ASSAY_PROCEDURE: Cytotoxicity against human K562 cells assessed as viable cells after 72 hrs by MTS/PMS assay
# Type: functional, cell-based
# CONDITION: K562, 72 h
Scale: negative log10 of molar concentration, which is what pIC50 denotes.

Q: Which pIC50 is listed for O=C1C2=C3C4=[N+](CCc5c[nH]c1c54)C1[C@H](O)CC(=O)[C@@]3(C[C@@H](O)N2)[C@H]1O ?
Ans: 5.66

Q: Query O=C1C2=C3C4=[N+](CCc5c[nH]c1c54)C1C(=O)C=C4S[C@@H](C[C@@]43[C@H]1O)N2 next
Ans: 5.35

Q: Query O=C1C=C[C@]2(C=C1Br)CCNC1=C2C2=NCCc3c[nH]c(c32)C1=O next
Ans: 5.89

* * *

MIC reference
# Test system: Staphylococcus aureus
# ASSAY_PROCEDURE: Antibacterial activity against Staphylococcus aureus […]
# Assay type: functional
Expressed in µg/mL, but write only the number.

Observe how each entry below is paired with its result.
INSERT INTO results (compound, experimental_result) VALUES
  ('O=C1C=C[C@]2(C=C1Br)CCNC1=C2C2=NCCc3c[nH]c(c32)C1=O', 100),
  ('O=C1C2=C3C4=[N+](CCc5c[nH]c1c54)C1C(=O)C=C4S[C@@H](C[C@@]43[C@H]1O)N2', 50),
  ('O=C1C(NC2Cc3cc(Br)c(O)cc3S2)=CC2=NCCc3c[nH]c1c32 (stereo not drawn)', 50);

Okay, now this compound:
Q: Which MIC is listed for O=C1C2=C3C4=[N+](CCc5c[nH]c1c54)C1C[C@@]34C[C@@H](N2)SC4=CC1=O ?
Ans: 100

* * *

# Test system: K562
# ASSAY_PROCEDURE: Cytotoxicity against human K562 cells assessed as viable cells after 72 hrs by MTS/PMS assay
# Format: functional, cell-based
# CONDITION: K562, 72 h
pIC50 reference
Scale: negative log10 of molar concentration, which is what pIC50 denotes.

Observe how each entry below is paired with its result.
INSERT INTO measurements (compound, experimental_result) VALUES
  ('O=C1C(NC2Cc3cc(Br)c(O)cc3S2)=CC2=NCCc3c[nH]c1c32 (configuration not stated)', 5.05),
  ('O=C1C(Br)=CC2(C=C1Br)CCNC1=C2C2=NCCc3c[nH]c(c32)C1=O', 4.60),
  ('O=C1C2=C3C4=[N+](CCc5c[nH]c1c54)C1[C@H](O)C=C4S[C@@H](C[C@@]43[C@H]1O)N2', 5.60),
  ('O=C1C=C2S[C@H]3C[C@]2(C=C1Br)C1=C(N3)C(=O)c2[nH]cc3c2C1=NCC3 [(+)-DISCORHABDIN B]', 5.14),
  ('O=C1C2=C(C3=NCCc4c[nH]c1c43)C1(C=C(Br)C(O)C(Br)=C1)CCN2 (configuration not stated) [DIHYDRODISCORHABDIN C]', 4.69);

Q: Which pIC50 is listed for O=C1C2=C3C4=[N+](CCc5c[nH]c1c54)C1C[C@@]34C[C@@H](N2)SC4=C[C@H]1O ?
Ans: 5.68

Q: Query O=C1C=C[C@@]23C[C@@H](NC4=C2C2=NCCc5c[nH]c(c52)C4=O)SC3=C1 next
Ans: 4.60
